# pIC50 per entry
- target or system: PI3Kδ (p110δ/p85α) Recombinant Human Protein (Homo sapiens (Human))
- Sequence (O00329 whole entry): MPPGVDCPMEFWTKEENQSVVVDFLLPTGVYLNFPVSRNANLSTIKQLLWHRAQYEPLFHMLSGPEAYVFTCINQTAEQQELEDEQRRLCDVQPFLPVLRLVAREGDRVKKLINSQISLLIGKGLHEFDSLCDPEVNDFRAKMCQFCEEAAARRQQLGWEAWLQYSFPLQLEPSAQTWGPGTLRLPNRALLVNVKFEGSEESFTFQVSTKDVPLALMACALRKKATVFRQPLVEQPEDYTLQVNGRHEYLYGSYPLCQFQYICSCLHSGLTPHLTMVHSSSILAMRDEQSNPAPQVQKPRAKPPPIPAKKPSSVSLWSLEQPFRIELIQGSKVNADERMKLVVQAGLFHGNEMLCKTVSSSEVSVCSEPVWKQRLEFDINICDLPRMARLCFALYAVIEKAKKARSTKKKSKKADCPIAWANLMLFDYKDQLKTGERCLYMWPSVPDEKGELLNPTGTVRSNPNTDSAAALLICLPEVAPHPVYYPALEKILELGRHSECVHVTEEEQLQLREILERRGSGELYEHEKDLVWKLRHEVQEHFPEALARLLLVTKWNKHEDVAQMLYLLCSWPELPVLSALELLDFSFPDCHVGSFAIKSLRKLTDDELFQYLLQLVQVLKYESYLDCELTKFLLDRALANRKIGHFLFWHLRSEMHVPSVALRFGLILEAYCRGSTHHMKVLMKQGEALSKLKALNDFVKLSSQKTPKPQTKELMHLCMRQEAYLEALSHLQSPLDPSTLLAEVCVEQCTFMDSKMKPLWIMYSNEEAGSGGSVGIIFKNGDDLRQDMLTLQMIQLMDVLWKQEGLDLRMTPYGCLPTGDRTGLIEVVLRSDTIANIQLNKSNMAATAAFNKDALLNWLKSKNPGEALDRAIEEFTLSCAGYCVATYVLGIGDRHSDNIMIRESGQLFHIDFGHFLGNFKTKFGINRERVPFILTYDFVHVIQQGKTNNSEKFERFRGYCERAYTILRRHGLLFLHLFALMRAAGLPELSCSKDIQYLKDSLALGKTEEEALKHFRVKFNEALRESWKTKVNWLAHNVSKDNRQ
- Sequence (P27986 whole entry partner): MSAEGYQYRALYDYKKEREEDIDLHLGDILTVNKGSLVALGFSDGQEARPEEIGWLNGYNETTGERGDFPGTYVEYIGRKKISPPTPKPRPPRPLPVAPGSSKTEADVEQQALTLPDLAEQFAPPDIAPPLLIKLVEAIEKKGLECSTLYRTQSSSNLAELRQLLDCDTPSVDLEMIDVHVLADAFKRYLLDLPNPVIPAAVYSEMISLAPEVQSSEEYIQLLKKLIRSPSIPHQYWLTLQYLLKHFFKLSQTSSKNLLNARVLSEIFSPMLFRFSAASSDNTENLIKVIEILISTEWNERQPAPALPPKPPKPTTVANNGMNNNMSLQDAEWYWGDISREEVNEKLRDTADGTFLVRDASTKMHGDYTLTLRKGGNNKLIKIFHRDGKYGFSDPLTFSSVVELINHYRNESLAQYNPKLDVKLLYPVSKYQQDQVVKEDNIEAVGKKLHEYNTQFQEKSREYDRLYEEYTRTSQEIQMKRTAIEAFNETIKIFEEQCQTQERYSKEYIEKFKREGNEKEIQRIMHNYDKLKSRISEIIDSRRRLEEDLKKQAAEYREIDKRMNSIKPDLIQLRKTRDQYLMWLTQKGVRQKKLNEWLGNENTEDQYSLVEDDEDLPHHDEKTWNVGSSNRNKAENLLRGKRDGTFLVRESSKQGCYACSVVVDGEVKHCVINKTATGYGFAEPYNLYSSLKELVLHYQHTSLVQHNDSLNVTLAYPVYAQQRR
- assay overview: PI3Kδ scintillation proximity assay
- Format: biochemical
- measurement context: 2 μM ATP, 20 μM PIP2
pIC50: −log10 of the molar value. Structures can show the parent of a compound that is named as a salt.

Problem: What does the record list as pIC50 for CC(NC(=O)c1c(N)nn2cccnc12)c1cc(Cl)c2cncn2c1N1CCCS(=O)(=O)CC1 (racemic) [Example 151, trifluoroacetate salt] ?
Result: > 7.00

Problem: Tell me the measured pIC50 of CC(NC(=O)c1c(N)nn2cccnc12)c1cc(Cl)c2cncn2c1N1CCN(C)C(=O)C1 (racemic) [Example 154, trifluoroacetate salt] , please.
Result: > 6.30

Problem: Which pIC50 reading was recorded for the molecule Nc1nn2cccnc2c1C(=O)NCc1cc(Cl)c2c(Cl)ncn2c1N1CCCC1 [Example 172] ?
Result: > 6.30

Problem: Which measured pIC50 value corresponds to CC(NC(=O)c1c(N)nn2cccnc12)c1cc(Cl)c2cncn2c1C1CCCCC1 (racemic) [Example 183, trifluoroacetate salt] ?
Result: > 5.70

Problem: I would be grateful if you could share the reported pIC50 for Cc1ncc2c(Cl)cc(C(C)NC(=O)c3c(N)nn4cccnc34)c(-c3cn[nH]c3)n12 (racemic) [Example 118, trifluoroacetate salt] .
Result: > 7.00

Problem: Look up pIC50 for this molecule: CC(NC(=O)c1c(N)nn2cccnc12)c1cc(Cl)c2cn[nH]c2c1N1CCC[C@H](NS(C)(=O)=O)C1 (stereo partly shown) [Example 105, trifluoroacetate]
Result: > 7.00
